test: Octanol-water partition coefficient, log P of the compound after 72 hrs; type: physicochemical
endpoint: logP at 72 h

Known logP at 72 h results, listed for orientation:
>>> val("O=C(NO)Nc1ccc(Cl)cc1")
1.39
>>> val("CC(C)(C)NC(=O)NO")
0.5

1 = CCNC(=O)NO
2 = CCCNC(=O)NO
Response body: label of entry with the larger logP at 72 h; valid values 1 , 2 . Return value: the label identifying the chosen record.
2
(2: 0.22, 1: -0.76)
